Let's go through some recorded pIC50 values for Full-length WT ClbP (Escherichia coli, UniProt Q0P7K6) together.
pIC50: −log10 of the molar value.

Query: Item under review: `CCCCCCCC(=O)N[C@H](CC(N)=O)[C@H](O)CCCc1ccccc1` . Reported pIC50?
Result: 3.52 to 4.00

Query: Give the measured pIC50 of `CCCCCCCC(=O)N[C@H](CC(N)=O)C(=O)NCCC1CCN(C)CC1` .
Result: > 4.00

Query: Would you kindly share the measured pIC50 for CCCCCCCCCC(=O)N[C@@H]1CC(=O)NC1(O)C(=O)NCc1ccccc1 (stereo partly shown) [Compound […]] ?
Result: > 4.00

Query: Recorded pIC50 of `CN(CCCCCC(=O)N[C@H](CC(N)=O)C(=O)NCCc1ccc(O)cc1)Cc1ccccc1` , please.
Result: > 4.00
